Collected Test E2 rating (% disease control) values appear next to each entry.
test system: Puccinia recondite f. sp. tritici; assay: Test E2: preventive spray on wheat seedlings, visual disease rating (wheat leaf rust); format: in vivo; conditions: no asterisk: standard test suspension, not 40 ppm

{"Molecule": "Cc1nn(C)c(-c2ccc(F)cc2Cl)c1Oc1ccc(C#N)cc1Cl", "Unit Annotation": "%", "Test E2 rating (% disease control)": 98}
{"Molecule": "Cc1nn(C)c(-c2c(F)cccc2F)c1S(=O)(=O)c1ccc(Cl)cc1", "Unit Annotation": "%", "Test E2 rating (% disease control)": 28}
{"Molecule": "Cc1nn(C)c(-c2ccc(F)cc2Cl)c1Nc1ccc(F)cc1", "Unit Annotation": "%", "Test E2 rating (% disease control)": 41}
{"Molecule": "Cc1nn(C)c(-c2ccc(F)cc2Cl)c1C(O)c1ccc(F)cc1I (centres unmarked)", "Unit Annotation": "%", "Test E2 rating (% disease control)": 100}
{"Molecule": "Cc1nn(C)c(-c2ccc(F)cc2Cl)c1Nc1ccc(Cl)cc1F", "Unit Annotation": "%", "Test E2 rating (% disease control)": 97}
